Recorded measurements of screen value, one per entry
B1: PAIP1 peptide 126-141 (Polyadenylate-binding protein-interacting protein 1), 16-mer library wild type / PABPC1 PABC (PABPC1 PABC domain, residues 544-623) (parent)
chain 1: SKLSVNAPEFYPSGYS
chain 2: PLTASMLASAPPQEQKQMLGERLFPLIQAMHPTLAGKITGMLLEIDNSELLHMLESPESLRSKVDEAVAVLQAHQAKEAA

# Variants of: B1
# experiment notes: proteomic peptide phage display deep mutational scan (ProP-PD DMS): M13 P8 16-mer library selected against immobilised GST-tagged bait for four days (rounds), NGS of the eluted pools per day and pseudo-replica
# condition: with PABPC1 PABC (PABPC1 PABC domain, residues 544-623); bait immobilised on MaxiSorp plates (10 µg), library pre-cleared on GST, 2 h binding at 4 °C, five washes; one round per day, days 1-4; value from days 2 and 3; keep out of graded; scale: average fractional NGS count over selection days 2 and 3
readout: screen value

variant_identifier="chain 1 Y11F" readout="screen value" assay_value=0.000586
variant_identifier="chain 1 P12L" readout="screen value" assay_value=0.00211
variant_identifier="chain 1 S1Y" readout="screen value" assay_value=0.000342
